System: Staphylococcus aureus
Assay: Antibacterial activity against methicillin-resistant Staphylococcus aureus assessed as growth inhibition after 24 hrs by MTT assay
Format: functional
Non-standard residues stand in square brackets, D forms with d. Residues, ends and D or L forms follow the SMILES beside them. *: point of attachment. NHCH2CH2OH = OCCN*; For = O=C*
For each of the compounds below, state its MIC.
Give just the number in µg/mL; leave the unit off.

Report MIC for CCCCCCCSC[C@H]1O[C@H](O[C@H]2[C@H](O[C@@H]3O[C@H](CSCCCCCCC)[C@@H](O[C@H]4O[C@@H](CN)[C@@H](O)[C@H](O)[C@H]4N)[C@H]3O)[C@@H](O)[C@H](N)C[C@@H]2N)[C@H](N)[C@@H](O)[C@@H]1O
16

Read the entry CCCCCCCCCCCCCCCCSC[C@H]1O[C@H](O[C@H]2[C@H](O[C@@H]3O[C@H](CO)[C@@H](O[C@H]4O[C@@H](CN)[C@@H](O)[C@H](O)[C@H]4N)[C@H]3O)[C@@H](O)[C@H](N)C[C@@H]2N)[C@H](N)[C@@H](O)[C@@H]1O and write its reported MIC.
64

For the compound CCCCCCCCSC[C@H]1O[C@H](O[C@H]2[C@H](O[C@@H]3O[C@H](CSCCCCCCCC)[C@@H](O[C@H]4O[C@@H](CN)[C@@H](O)[C@H](O)[C@H]4N)[C@H]3O)[C@@H](O)[C@H](N)C[C@@H]2N)[C@H](N)[C@@H](O)[C@@H]1O , give its reported MIC.
8

Answer with the recorded MIC of CC(C)C[C@@H](NC(=O)[C@H](C)NC(=O)CNC(=O)[C@@H](NC=O)C(C)C)C(=O)N[C@@H](C)C(=O)N[C@@H](C(=O)N[C@H](C(=O)N[C@@H](C(=O)N[C@@H](Cc1c[nH]c2ccccc12)C(=O)N[C@H](CC(C)C)C(=O)N[C@@H](Cc1c[nH]c2ccccc12)C(=O)N[C@H](CC(C)C)C(=O)N[C@@H](Cc1c[nH]c2ccccc12)C(=O)N[C@H](CC(C)C)C(=O)N[C@@H](Cc1c[nH]c2ccccc12)C(=O)NCCO)C(C)C)C(C)C)C(C)C [GRAMICIDIN D] (For-VGA[dL]A[dV]V[dV]W[dL]W[dL]W[dL]W-NHCH2CH2OH) only.
64

====

Tested on: Streptococcus pyogenes
Assay: Antibacterial activity against Streptococcus pyogenes MGAS9429 assessed as growth inhibition after 24 hrs by MTT assay
Format: functional
Conditions: MGAS9429, 24 h
Quantity kind: MIC (µg/mL)
Write the answer as a number in µg/mL, unit excluded.

For the compound CCCCCCCCCCCCCCCCSC[C@H]1O[C@H](O[C@H]2[C@H](O[C@@H]3O[C@H](CO)[C@@H](O[C@H]4O[C@@H](CN)[C@@H](O)[C@H](O)[C@H]4N)[C@H]3O)[C@@H](O)[C@H](N)C[C@@H]2N)[C@H](N)[C@@H](O)[C@@H]1O , report MIC.
32

Give recorded MIC. CCCCCCSC[C@H]1O[C@H](O[C@H]2[C@H](O[C@@H]3O[C@H](CSCCCCCC)[C@@H](O[C@H]4O[C@@H](CN)[C@@H](O)[C@H](O)[C@H]4N)[C@H]3O)[C@@H](O)[C@H](N)C[C@@H]2N)[C@H](N)[C@@H](O)[C@@H]1O
8

====

Provide the reported MIC of each item.
Tested on: Streptococcus pyogenes
Assay: Antibacterial activity against Streptococcus pyogenes JRS75 assessed as growth inhibition after 24 hrs by MTT assay
Format: functional
Conditions: JRS75, 24 h
Record the value in µg/mL, omitting the unit from your answer.

Read the entry NC[C@@H]1O[C@H](O[C@H]2[C@@H](O)[C@H](O[C@@H]3[C@@H](O)[C@H](N)C[C@H](N)[C@H]3O[C@H]3O[C@H](CO)[C@@H](O)[C@H](O)[C@H]3N)O[C@@H]2CO)[C@H](N)[C@@H](O)[C@@H]1O and write its reported MIC.
64

Answer with the recorded MIC of CCCCCCCCSC[C@H]1O[C@H](O[C@H]2[C@H](O[C@@H]3O[C@H](CSCCCCCCCC)[C@@H](O[C@H]4O[C@@H](CN)[C@@H](O)[C@H](O)[C@H]4N)[C@H]3O)[C@@H](O)[C@H](N)C[C@@H]2N)[C@H](N)[C@@H](O)[C@@H]1O only.
2

Return the recorded MIC value; entry: CCCCCCCSC[C@H]1O[C@H](O[C@H]2[C@H](O[C@@H]3O[C@H](CSCCCCCCC)[C@@H](O[C@H]4O[C@@H](CN)[C@@H](O)[C@H](O)[C@H]4N)[C@H]3O)[C@@H](O)[C@H](N)C[C@@H]2N)[C@H](N)[C@@H](O)[C@@H]1O
4

Please report MIC for the following compound: CCCCCCSC[C@H]1O[C@H](O[C@H]2[C@H](O[C@@H]3O[C@H](CSCCCCCC)[C@@H](O[C@H]4O[C@@H](CN)[C@@H](O)[C@H](O)[C@H]4N)[C@H]3O)[C@@H](O)[C@H](N)C[C@@H]2N)[C@H](N)[C@@H](O)[C@@H]1O
8

Retrieve MIC measured for CCCCCCCCCCCCCCCCSC[C@H]1O[C@H](O[C@H]2[C@H](O[C@@H]3O[C@H](CO)[C@@H](O[C@H]4O[C@@H](CN)[C@@H](O)[C@H](O)[C@H]4N)[C@H]3O)[C@@H](O)[C@H](N)C[C@@H]2N)[C@H](N)[C@@H](O)[C@@H]1O and print it.
8

====

System: Streptococcus pyogenes
Test: Antibacterial activity against Streptococcus pyogenes MGAS9429 assessed as growth inhibition after 24 hrs by MTT assay
Format: functional
Settings: MGAS9429, 24 h
Give measured MIC for each item. Keep answers brief.
Value expressed in µg/mL; do not type the unit.

Return value of MIC for input CCCCCCCSC[C@H]1O[C@H](O[C@H]2[C@H](O[C@@H]3O[C@H](CSCCCCCCC)[C@@H](O[C@H]4O[C@@H](CN)[C@@H](O)[C@H](O)[C@H]4N)[C@H]3O)[C@@H](O)[C@H](N)C[C@@H]2N)[C@H](N)[C@@H](O)[C@@H]1O , no commentary.
4

State its MIC: CCCCCCCCSC[C@H]1O[C@H](O[C@H]2[C@H](O[C@@H]3O[C@H](CSCCCCCCCC)[C@@H](O[C@H]4O[C@@H](CN)[C@@H](O)[C@H](O)[C@H]4N)[C@H]3O)[C@@H](O)[C@H](N)C[C@@H]2N)[C@H](N)[C@@H](O)[C@@H]1O
4

====

System: Streptococcus pyogenes
Assay: Antibacterial activity against Streptococcus pyogenes serotype M24 assessed as growth inhibition after 24 hrs by MTT assay
Assay type: functional
Conditions: serotype M24, 24 h
Non-standard residues stand in square brackets, D forms with d. Residues, ends and D or L forms follow the SMILES beside them. *: point of attachment. NHCH2CH2OH = OCCN*; For = O=C*
Quantity kind: MIC

Check the records and state MIC for CC(C)C[C@@H](NC(=O)[C@H](C)NC(=O)CNC(=O)[C@@H](NC=O)C(C)C)C(=O)N[C@@H](C)C(=O)N[C@@H](C(=O)N[C@H](C(=O)N[C@@H](C(=O)N[C@@H](Cc1c[nH]c2ccccc12)C(=O)N[C@H](CC(C)C)C(=O)N[C@@H](Cc1c[nH]c2ccccc12)C(=O)N[C@H](CC(C)C)C(=O)N[C@@H](Cc1c[nH]c2ccccc12)C(=O)N[C@H](CC(C)C)C(=O)N[C@@H](Cc1c[nH]c2ccccc12)C(=O)NCCO)C(C)C)C(C)C)C(C)C [GRAMICIDIN D] (For-VGA[dL]A[dV]V[dV]W[dL]W[dL]W[dL]W-NHCH2CH2OH)
< 0.5 µg/mL

====

Test: Hemolytic activity in rat RBC assessed as hemoglobin release at 256 ug/mL after 1 hr by microplate reader analysis relative to control
Format: ADME, cell-based, Erythrocyte
Conditions: red blood cells (RBC), read-out: Activity
Quantity kind: hemolysis at 1 h, 256 ug/mL (%)
State the answer as a number, implicitly in %.

Item CCCCCCSC[C@H]1O[C@H](O[C@H]2[C@H](O[C@@H]3O[C@H](CSCCCCCC)[C@@H](O[C@H]4O[C@@H](CN)[C@@H](O)[C@H](O)[C@H]4N)[C@H]3O)[C@@H](O)[C@H](N)C[C@@H]2N)[C@H](N)[C@@H](O)[C@@H]1O : provide hemolysis at 1 h, 256 ug/mL
3.4

// fetch hemolysis at 1 h, 256 ug/mL given entry CCCCCCCSC[C@H]1O[C@H](O[C@H]2[C@H](O[C@@H]3O[C@H](CSCCCCCCC)[C@@H](O[C@H]4O[C@@H](CN)[C@@H](O)[C@H](O)[C@H]4N)[C@H]3O)[C@@H](O)[C@H](N)C[C@@H]2N)[C@H](N)[C@@H](O)[C@@H]1O
30.4

Give the value of hemolysis at 1 h, 256 ug/mL reported for the following: CCCCCCCCSC[C@H]1O[C@H](O[C@H]2[C@H](O[C@@H]3O[C@H](CSCCCCCCCC)[C@@H](O[C@H]4O[C@@H](CN)[C@@H](O)[C@H](O)[C@H]4N)[C@H]3O)[C@@H](O)[C@H](N)C[C@@H]2N)[C@H](N)[C@@H](O)[C@@H]1O
62.5
